B1: ZNF649 (parent)
chain: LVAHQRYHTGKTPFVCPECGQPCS

- Variants of: B1
- experiment description: protein stability index of a GFP-peptide fusion (GPS, HEK-293T) (PSI 1-6); higher = more stable;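 note: lentivirally expressed fusions sorted by FACS into six bins by GFP to DsRed ratio, PSI derived from sequencing read proportions per bin multiplied by bin number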
- condition: c terminus: a fixed tail appended
Classification field: enter t for protein stability index values not below 3, f for values below it.

Worked cases, answers included:
biopolymer sequence	class
LVAHQRYHTGKTPFWCPECGQPCS [V15W]	f
LVAHQRYHTGKTPDVCPECGQPCS [F14D]	t
LVAHQRYHTGRTPFVCPECGQPCS [K11R]	t
LVAHQRYHTGKTPFVCPECGIPCS [Q21I]	f

**Q:** Can LVAHQRYKTGKTPFVCPECGQPCS [H8K] be said to have protein stability index at or above 3?
**A:** f

**Q:** Can LVAHQRYHWGKTPFVCPECGQPCS [T9W] be said to have protein stability index at or above 3?
**A:** f
